- System: velvetleaf
- Protocol Notes: Test A postemergence
- Assay type: in vivo, Abutilon theophrasti
- Experimental Context: Postemergence, 125 g ai/ha; 0 to 100 scale, 0 no effect, 100 complete control

{"Structure String": "CCc1cc(C(=O)NN(C)C)nn1Cc1ccnc(C(F)(F)F)c1", "Study Target": "velvetleaf", "Velvetleaf plant response rating": 50}
{"Structure String": "CCc1cc(C(=O)NC2CC2)nn1Cc1ccnc(OCC(F)(F)F)c1", "Study Target": "velvetleaf", "Velvetleaf plant response rating": 80}
{"Structure String": "CCc1cc(C(=O)NCC2CC2)nn1Cc1ccnc(C(F)(F)F)c1", "Study Target": "velvetleaf", "Velvetleaf plant response rating": 80}
{"Structure String": "CCOc1cc(C(=O)NC(C)C)nn1Cc1ccnc(C(F)(F)F)c1", "Study Target": "velvetleaf", "Velvetleaf plant response rating": 100}

====

- Tested on: blackgrass
- Protocol Notes: Test C preemergence
- Format: in vivo, Alopecurus myosuroides
- Experimental Context: Preemergence, 250 g ai/ha
Attribute: Plant response rating (scale of 0 to 100), Blackgrass
Endpoint Name: Plant response rating (scale of 0 to 100), Blackgrass

{"Structure String": "CCc1cc(C(=O)NC2CC2)nn1Cc1ccnc(OC(F)F)c1", "Recorded Number": 100}
{"Structure String": "CCCc1cc(C(=O)NCC(F)(F)F)nn1Cc1ccnc(C(F)(F)F)c1", "Recorded Number": 90}
{"Structure String": "CCOc1cc(C(=O)NCC(F)(F)F)nn1Cc1ccnc(C(F)(F)F)c1", "Recorded Number": 90}
{"Structure String": "CCCNC(=O)c1cc(CC)n(Cc2ccnc(OC(F)F)c2)n1", "Recorded Number": 98}

====

Attribute: Plant response rating, Johnsongrass
- Tested on: johnsongrass
- Protocol Notes: Test E preemergence
- Format: in vivo, Sorghum halepense
- Experimental Context: 31 g ai/ha, 21 days, scale 0 to 100

{"Structure String": "CCc1cc(C(=O)NCC(F)(F)F)nn1Cc1ccnc(C(F)(F)F)c1", "Study Target": "johnsongrass", "Plant response rating, Johnsongrass": 80}
{"Structure String": "CCOc1cc(C(=O)NCC(F)(F)F)nn1Cc1ccnc(C(F)(F)F)c1", "Study Target": "johnsongrass", "Plant response rating, Johnsongrass": 100}
{"Structure String": "CCCc1cc(C(=O)NCC(F)(F)F)nn1Cc1ccnc(C(F)(F)F)c1", "Study Target": "johnsongrass", "Plant response rating, Johnsongrass": 80}
{"Structure String": "CCc1cc(C(=O)NC(C)C)nn1Cc1ccnc(C(F)(F)F)c1", "Study Target": "johnsongrass", "Plant response rating, Johnsongrass": 100}

====

- Test system: barnyardgrass
- Protocol Notes: Test A preemergence
- Assay type: in vivo, Echinochloa crus-galli
- Experimental Context: preemergence, 500 g ai/ha, visual injury after approx. 10 days, 0 to 100 scale (0 no effect, 100 complete control)

{"Structure String": "CCCNC(=O)c1cc(CC)n(Cc2ccnc(OC(F)F)c2)n1", "Barnyardgrass plant response rating": 100}
{"Structure String": "CCc1cc(C(=O)NC2CC2)nn1Cc1cc(C(F)(F)C(F)(F)F)nn1C", "Barnyardgrass plant response rating": 100}
{"Structure String": "CCCCNC(=O)c1cc(CC)n(Cc2cc(OC(F)F)nn2C)n1", "Barnyardgrass plant response rating": 0}
{"Structure String": "O=C(NCC(F)(F)F)c1cc(CCCl)n(Cc2ccnc(C(F)(F)F)c2)n1", "Barnyardgrass plant response rating": 100}
{"Structure String": "CCc1cc(C(=O)NN(C)C)nn1Cc1ccnc(C(F)(F)F)c1", "Barnyardgrass plant response rating": 0}
